Biological target: GST-SRPK1 (Homo sapiens, UniProt Q96SB4)
Sequence (Q96SB4 whole entry): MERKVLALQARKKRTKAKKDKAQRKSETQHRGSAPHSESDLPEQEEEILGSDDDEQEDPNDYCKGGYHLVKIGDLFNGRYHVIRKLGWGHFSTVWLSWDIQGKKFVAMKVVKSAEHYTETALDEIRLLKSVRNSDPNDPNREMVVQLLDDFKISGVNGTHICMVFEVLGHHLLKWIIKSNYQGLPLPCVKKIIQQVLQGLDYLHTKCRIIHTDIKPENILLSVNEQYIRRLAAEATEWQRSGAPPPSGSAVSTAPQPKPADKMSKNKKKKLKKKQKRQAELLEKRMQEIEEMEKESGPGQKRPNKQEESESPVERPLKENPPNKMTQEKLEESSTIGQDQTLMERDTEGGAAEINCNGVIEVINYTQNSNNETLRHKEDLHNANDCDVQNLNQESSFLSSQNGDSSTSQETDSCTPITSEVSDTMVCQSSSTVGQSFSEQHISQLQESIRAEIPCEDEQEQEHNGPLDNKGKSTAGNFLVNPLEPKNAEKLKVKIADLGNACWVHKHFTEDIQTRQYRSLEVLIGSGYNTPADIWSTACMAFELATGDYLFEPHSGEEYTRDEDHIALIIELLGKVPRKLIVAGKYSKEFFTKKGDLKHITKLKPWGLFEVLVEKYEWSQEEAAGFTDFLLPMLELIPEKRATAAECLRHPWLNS
pIC50: −log10 of the molar value.
Result Type: pIC50

CCc1cc2c(cc1-c1ccn(C(=O)NCCOCCOCCNC(=O)Cn3c(=O)[nH]cc(F)c3=O)n1)C(C)(C)c1[nH]c3cc(C#N)ccc3c1C2=O [geo140, (JH-VII-139-1)–(5-FU) conjugate] : 7.66

----------
System: Caco2
Assay: MTT viability assay, Caco2
Type: cell-based
Conditions: Homo sapiens, Caco-2, 48 h treatment, mean of three independent experiments
Recorded measurements of EC50, one per entry
Result Type: EC50

CCc1cc2c(cc1-c1ccn(C(=O)NCCOCCOCCNC(=O)Cn3c(=O)[nH]cc(F)c3=O)n1)C(C)(C)c1[nH]c3cc(C#N)ccc3c1C2=O [geo140, (JH-VII-139-1)–(5-FU) conjugate] : 31.2 µM
Nc1ccn([C@@H]2O[C@H](CO)[C@@H](O)C2(F)F)c(=O)n1 [Gemcitabine, gemcitabine, reference compound] : > 50 µM
O=c1[nH]cc(F)c(=O)[nH]1 [5-FU, 5-fluorouracil, reference compound] : > 50 µM
COc1cc(/C=C(\C#N)C(=O)Nc2nnc(C(F)(F)F)s2)ccc1OCc1ccc(NC(=O)CNC(=O)OC[C@H]2O[C@@H](n3ccc(N)nc3=O)C(F)(F)[C@@H]2O)cc1 : > 50 µM

----------
Target: GST-SRPK2 (Homo sapiens, UniProt P78362)
Sequence (P78362 whole entry): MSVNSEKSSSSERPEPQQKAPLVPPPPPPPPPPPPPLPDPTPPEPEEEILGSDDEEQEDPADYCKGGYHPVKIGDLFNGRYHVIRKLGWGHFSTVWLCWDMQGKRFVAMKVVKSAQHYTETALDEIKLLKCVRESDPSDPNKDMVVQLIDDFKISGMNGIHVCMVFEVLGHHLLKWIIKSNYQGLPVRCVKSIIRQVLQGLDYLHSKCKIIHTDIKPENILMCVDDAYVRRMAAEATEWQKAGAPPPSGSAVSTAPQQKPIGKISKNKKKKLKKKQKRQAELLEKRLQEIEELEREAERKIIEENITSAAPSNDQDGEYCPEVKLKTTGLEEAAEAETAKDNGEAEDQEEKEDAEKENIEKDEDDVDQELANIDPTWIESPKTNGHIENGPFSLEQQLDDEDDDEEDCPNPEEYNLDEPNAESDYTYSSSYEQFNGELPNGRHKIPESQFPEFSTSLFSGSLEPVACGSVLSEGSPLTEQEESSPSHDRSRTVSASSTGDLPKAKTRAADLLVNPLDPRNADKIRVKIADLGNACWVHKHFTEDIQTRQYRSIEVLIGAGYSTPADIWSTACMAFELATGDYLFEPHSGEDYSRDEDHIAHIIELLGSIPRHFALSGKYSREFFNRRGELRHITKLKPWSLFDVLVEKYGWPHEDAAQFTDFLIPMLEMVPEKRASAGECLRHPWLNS
Result Type: IC50 (µM)

CCc1cc2c(cc1-c1ccn(C(=O)NCCOCCOCCNC(=O)Cn3c(=O)[nH]cc(F)c3=O)n1)C(C)(C)c1[nH]c3cc(C#N)ccc3c1C2=O [geo140, (JH-VII-139-1)–(5-FU) conjugate] : 7.9

----------
Test system: K562
Experiment: MTT viability assay, K562
Type: cell-based
Conditions: Homo sapiens, 48 h treatment, mean of three independent experiments
pEC50: −log10 of the molar value.
Reported pEC50 values for the following molecules.
Result Type: pEC50

COc1cc(/C=C(\C#N)C(=O)Nc2nnc(C(F)(F)F)s2)ccc1OCc1ccc(NC(=O)CNC(=O)OC[C@H]2O[C@@H](n3ccc(N)nc3=O)C(F)(F)[C@@H]2O)cc1 : < 4.30
CCc1cc2c(cc1-c1ccn(C(=O)NCCOCCOCCNC(=O)Cn3c(=O)[nH]cc(F)c3=O)n1)C(C)(C)c1[nH]c3cc(C#N)ccc3c1C2=O [geo140, (JH-VII-139-1)–(5-FU) conjugate] : 4.86
O=c1[nH]cc(F)c(=O)[nH]1 [5-FU, 5-fluorouracil, reference compound] : < 4.30
Nc1ccn([C@@H]2O[C@H](CO)[C@@H](O)C2(F)F)c(=O)n1 [Gemcitabine, gemcitabine, reference compound] : < 4.30

These measurements were taken from paper PMC12574689.
